The reader will find reported IC50 values listed item by item below.
# System: human lung cancer strain NCI-H441
# Format: cell-based
# Condition Set: NCI-H441 cells, 4 days, CellTiter-Glo; read-out: NCl-H441 IC50
Give just the number in nM; leave the unit off.

Smiles String	Scale Unit	Observed
CCC[C@H]1C(=O)N[C@@H]([C@@H](C)CC)C(=O)N(C)CC(=O)N(C)[C@H]2C/C=C\CCN(C2=O)[C@@H](Cc2ccc(C(F)(F)F)cc2)C(=O)N(C)CC(=O)N[C@@H](CCc2cc(Cl)c3c(ccn3C)c2)C(=O)N2C[C@H](OCC)C[C@H]2C(=O)NC2(CC(C)(C)C2)C(=O)N(C)[C@@H](C(CC)CC)C(=O)N(C)[C@H](C(=O)N(C)C)CC(=O)N1C	nM	79.3
CCOC[C@H]1C(=O)N[C@@H]([C@@H](C)CC)C(=O)N(C)CC(=O)N(C)[C@H]2C/C=C\CCN(C2=O)[C@@H](Cc2ccc(C)cc2F)C(=O)N(C)CC(=O)N[C@@H](CCc2ccc(C(F)(F)F)c(OC)c2)C(=O)N2C[C@@H](C)C[C@H]2C(=O)NC2(CC(C)(C)C2)C(=O)N(C)[C@@H](C2CCCC2)C(=O)N(C)[C@H](C(=O)N(C)CC)CC(=O)N1C	nM	42.8
CCOC[C@H]1C(=O)N[C@@H]([C@@H](C)CC)C(=O)N(C)CC(=O)N(C)[C@H]2C/C=C\CCN(C2=O)[C@@H](Cc2ccc(C(C)C)cc2)C(=O)N(C)CC(=O)N[C@@H](CCc2ccc(C(F)(F)F)c(OC)c2)C(=O)N2C[C@@H](C)C[C@H]2C(=O)NC2(CC(C)(C)C2)C(=O)N(C)[C@@H](C2CCCC2)C(=O)N(C)[C@H](C(=O)N(C)CC)CC(=O)N1C	nM	21.7
CCOC[C@H]1C(=O)N[C@@H]([C@@H](C)CC)C(=O)N(C)CC(=O)N(C)[C@H]2C/C=C\CCN(C2=O)[C@@H](Cc2ccc(C(C)=O)cc2)C(=O)N(C)CC(=O)N[C@@H](CCc2ccc(C(F)(F)F)c(OC)c2)C(=O)N2C[C@@H](C)C[C@H]2C(=O)NC2(CC(C)(C)C2)C(=O)N(C)[C@@H](C2CCCC2)C(=O)N(C)[C@H](C(=O)N(C)CC)CC(=O)N1C	nM	80.5
CCC[C@H]1C(=O)N[C@@H]([C@@H](C)CC)C(=O)N(C)CC(=O)N(C)[C@H]2C/C=C\CCN(C2=O)[C@@H](Cc2ccc(C(F)(F)F)cc2)C(=O)N(C)CC(=O)N[C@@H](CCc2cc(C)c(C3CC3)c(C)c2)C(=O)N2C[C@H](OCC)C[C@H]2C(=O)NC2(CC(C)(C)C2)C(=O)N(C)[C@@H](C2CCCC2)C(=O)N(C)[C@H](C(=O)N(C)C)CC(=O)N1C	nM	128

Task: Please provide the recorded IC50 for CCC[C@H]1C(=O)N[C@@H]([C@@H](C)CC)C(=O)N(C)CC(=O)N(C)[C@H]2C/C=C\CCN(C2=O)[C@@H](Cc2ccc(C(F)(F)F)cc2)C(=O)N(C)CC(=O)N[C@@H](CCc2cc(C)c(C(F)F)c(Cl)c2)C(=O)N2C[C@H](OCC)C[C@H]2C(=O)NC2(CC(C)(C)C2)C(=O)N(C)[C@@H](C2CCCC2)C(=O)N(C)[C@H](C(=O)N(C)C)CC(=O)N1C , tested on human lung cancer strain NCI-H441.
Result: 39.6

###

# Assayed System: GDP-bound KRAS wild-type protein (Homo sapiens)
# Assay Explanation: Binding to KRAS by surface plasmon resonance (SPR), dissociation constant KD
# Condition Set: Single Cycle Kinetics
Measured Quantity: pKd
Scale: negative log10 of molar concentration, which is what pKd denotes.

Smiles String	pKd
C=C(C)C[C@H]1C(=O)N(C)[C@H](C(=O)N(C)C)CC(=O)N(C)[C@@H](CC(C)C)C(=O)N[C@@H]([C@@H](C)CC)C(=O)N(C)CC(=O)N(C)[C@H]2C/C=C\CCN(C2=O)[C@@H](Cc2ccc(C)cc2)C(=O)N(C)CC(=O)N[C@@H](CCc2ccc(C(F)(F)F)c(OC)c2)C(=O)N2C[C@H](OCC)C[C@H]2C(=O)N(C)C2(CCC2)C(=O)N1C	9.07

Task: Dear colleague, I am looking for the recorded pKd of the following compound: CCC[C@H]1C(=O)N[C@@H](C2CCCC2)C(=O)N(C)CC(=O)N(C)[C@H]2C/C=C\CCN(C2=O)[C@@H](Cc2ccc(C)cc2)C(=O)N(C)CC(=O)N[C@@H](CCc2ccc(C(F)(F)F)c(Cl)c2)C(=O)N2CC3(CC3)C[C@H]2C(=O)N(C)C2(CCC2)C(=O)N(C)[C@@H]([C@@H](C)CC)C(=O)N(C)[C@H](C(=O)N(C)C)CC(=O)N1C
Result: 9.66

Task: Dear colleague, I am looking for the recorded pKd of the following compound: CCC[C@H]1C(=O)N[C@@H](C2CCCC2)C(=O)N(C)CC(=O)N(C)[C@H]2C/C=C\CCN(C2=O)[C@@H](Cc2ccc(C(F)F)cc2)C(=O)N(C)CC(=O)N[C@@H](CCc2cc(F)c(C(F)(F)F)c(OC)c2)C(=O)N2C[C@H](OC(C)C)C[C@H]2C(=O)N(C)C2(CCC2)C(=O)N(C)[C@@H](C(CC)CC)C(=O)N(C)[C@H](C(=O)N(C)C)CC(=O)N1C
Result: 10.08

###

# Assayed System: GDP-bound KRAS wild-type protein (Homo sapiens, UniProt P01116)
# Sequence (P01116 1-188 isoform P01116-2): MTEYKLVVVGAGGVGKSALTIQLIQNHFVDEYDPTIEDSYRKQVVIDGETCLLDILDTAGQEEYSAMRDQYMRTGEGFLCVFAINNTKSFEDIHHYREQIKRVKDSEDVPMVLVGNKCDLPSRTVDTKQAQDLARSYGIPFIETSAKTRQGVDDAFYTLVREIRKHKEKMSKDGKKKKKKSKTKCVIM
# Assay Explanation: Binding to KRAS by surface plasmon resonance (SPR), dissociation constant KD
# Condition Set: 1:1 binding model
Measured Quantity: pKd
Scale: negative log10 of molar concentration, which is what pKd denotes.

Smiles String	Observed
CCOC[C@H]1C(=O)N[C@@H]([C@@H](C)CC)C(=O)N2CCC[C@H]2C(=O)N(C)[C@H]2C/C=C\CCN(C2=O)[C@@H](Cc2ccc(C)cc2)C(=O)N(C)CC(=O)N[C@@H](CCc2ccc(C(F)(F)F)c(OC)c2)C(=O)N2C[C@@H](C)C[C@H]2C(=O)NC2(CC(C)(C)C2)C(=O)N(C)[C@@H](C2CCCC2)C(=O)N(C)[C@H](C(=O)N(C)CC)CC(=O)N1C	9.15

Task: Dear colleague, I am looking for the recorded pKd of the following compound: CCC[C@H]1C(=O)N[C@@H]([C@@H](C)CC)C(=O)N(C)CC(=O)N(C)[C@H]2C/C=C\CCN(C2=O)[C@@H](Cc2ccc(C(F)(F)F)cc2)C(=O)N(C)CC(=O)N[C@@H](CCc2ccc(C(F)(F)F)c(F)c2)C(=O)N2C[C@H](F)C[C@H]2C(=O)NC2(CC(C)(C)C2)C(=O)N(C)[C@@H](C2CCCCC2)C(=O)N(C)[C@H](C(=O)N(C)C)CC(=O)N1C
Result: 9.40

###

# System: human lung cancer strain NCI-H441
# Assay Explanation: NCI-H441 cell proliferation inhibitory activity (CellTiter-Glo, 4 days)
# Format: cell-based
# Condition Set: NCI-H441 cells, 4 days, read-out: NCl-H441 IC50
The reader will find reported log10 of IC50 values listed item by item below.
Transform log10 | Measure IC50 | Unit nM

Compound	log10 of IC50
CC[C@H](C)[C@@H]1NC(=O)[C@H](COC)N(C)C(=O)C[C@@H](C(=O)N(C)C)N(C)C(=O)[C@H](C2CCCC2)N(C)C(=O)C2(CC(C)(C)C2)NC(=O)[C@@H]2C[C@@H](C)CN2C(=O)[C@H](CCc2ccc(C(F)(F)F)c(OC)c2)NC(=O)CN(C)C(=O)[C@H](Cc2ccc(C)cc2)N2CC/C=C\C[C@@H](C2=O)N(C)C(=O)CN(C)C1=O [PP2387]	1.22
CCO[C@@H]1C[C@H]2C(=O)NC3(CC(C)(C)C3)C(=O)N(C)[C@@H](C(CC)CC)C(=O)N(C)[C@H](C(=O)N(C)C)CC(=O)N(C)[C@@H](COC)C(=O)N[C@@H]([C@@H](C)CC)C(=O)N(C3CC3)CC(=O)N(C)[C@H]3C/C=C\CCN(C3=O)[C@@H](CC3CCC(F)(F)CC3)C(=O)N(C)CC(=O)N[C@@H](CCc3ccc(Cl)c(Cl)c3)C(=O)N2C1 [PP2569]	2.27
CCC[C@H]1C(=O)N[C@@H]([C@@H](C)CC)C(=O)N(C)CC(=O)N(C)[C@H]2C/C=C\CCN(C2=O)[C@@H](Cc2ccc(C(F)(F)F)cc2)C(=O)N(C)CC(=O)N[C@@H](CCc2cc(F)c(C(F)(F)F)c(F)c2)C(=O)N2CC3(CC3)C[C@H]2C(=O)NC2(CCC2)C(=O)N(C)[C@@H]([C@@H](C)CC)C(=O)N(C)[C@H](C(=O)N(C)C)CC(=O)N1C [PP3404]	1.11
CCC[C@H]1C(=O)N[C@@H]([C@@H](C)CC)C(=O)N(C2CC2)CC(=O)N(C)[C@H]2C/C=C\CCN(C2=O)[C@@H](Cc2ccc(C(F)(F)F)cc2)C(=O)N(C)CC(=O)N[C@@H](CCc2cc(F)c(C(F)(F)F)c(F)c2)C(=O)N2CC[C@H](OC)[C@H]2C(=O)N(C)C2(CCC2)C(=O)N(C)[C@@H](C2CCCC2)C(=O)N(C)[C@H](C(=O)N(C)C)CC(=O)N1C [PP3282]	0.92
CCO[C@@H]1C[C@H]2C(=O)NC3(CC(C)(C)C3)C(=O)N(C)[C@@H](C3CCCC3)C(=O)N(C)[C@H](C(=O)N3CCCCC3)CC(=O)N(C)[C@@H](COC)C(=O)N[C@@H]([C@@H](C)CC)C(=O)N(C)CC(=O)N(C)[C@H]3C/C=C\CCN(C3=O)[C@@H](Cc3ccc(C(F)(F)F)cc3)C(=O)N(C)CC(=O)N[C@@H](CCc3ccc(Cl)c(Cl)c3)C(=O)N2C1 [PP2670]	1.40

Next item in the queue.
Task: Dear colleague, I am looking for the recorded log10 of IC50 of the following compound: CCCOC[C@H]1C(=O)N[C@@H]([C@@H](C)CC)C(=O)N(C)CC(=O)N(C)[C@H]2C/C=C\CCN(C2=O)[C@@H](Cc2ccc(C)cc2)C(=O)N(C)CC(=O)N[C@@H](CCc2ccc(C(F)(F)F)c(OC)c2)C(=O)N2C[C@H](OCC)C[C@H]2C(=O)NC2(CC(C)(C)C2)C(=O)N(C)[C@@H](CC(C)(C)C)C(=O)N(C)[C@H](C(=O)N(C)C)CC(=O)N1C [PP2712]
Result: 0.80
